In this section we review reported pIC50 values for a set of compounds.
biological target: TbDHFR (Trypanosoma brucei brucei); construct: pET 11D::TbDHFRHis vector design for the recombinant overexpression of TbDHFR in E. coli; His; made in house; host or cells: E. coli BL21(DE3), vector pET 11D::TbDHFRHis; assay: Spectrophotometric enzyme inhibition assay, recombinant TbDHFR; type: biochemical; details: read-out: IC50 TbDHFR
pIC50: −log10 of the molar value.

These solved cases illustrate the format of a correct answer.
COc1cc(C2OC(=O)C3C(c4ccc(O)c(OC)c4)OC(=O)C23)ccc1O (stereo not shown)	< 4.30
O=C(/C=C/CCc1ccc(O)c(O)c1)CCc1ccc(O)c(O)c1 [Compound 17, dehydrohirsutanone]	4.75

[ask] # pIC50 lookup, item O=c1[nH]c(=O)n([C@@H]2O[C@H](CO)[C@@H](O)[C@H]2O)c2nc(-c3ccc(Cl)cc3)cnc12
[reply] < 4.30

[ask] # pIC50 lookup, item C=C1C(=O)O[C@@H]2/C=C(\CO)CC/C=C(\C)C[C@H](OC(=O)C(=C)[C@H](O)CO)[C@@H]12
[reply] < 4.30

###

Biological target: TbPTR1 (Trypanosoma brucei brucei)
Construct: His6 (N); made in house; host or cells: E. coli BL21 (DE3), vector pET 15b::TbPTR1His (strain from the group of M. Paola Costi, Modena)
Sequence (O76290 1-268): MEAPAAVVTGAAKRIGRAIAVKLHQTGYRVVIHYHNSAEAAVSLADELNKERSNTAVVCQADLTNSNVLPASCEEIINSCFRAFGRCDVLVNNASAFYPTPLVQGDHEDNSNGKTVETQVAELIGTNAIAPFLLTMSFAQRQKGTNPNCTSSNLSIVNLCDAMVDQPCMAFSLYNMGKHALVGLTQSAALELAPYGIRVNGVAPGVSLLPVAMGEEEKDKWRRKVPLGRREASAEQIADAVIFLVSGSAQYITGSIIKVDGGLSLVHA
Experiment: Dilution assay for reversible/irreversible inhibition of TbPTR1
Format: biochemical
Conditions: inhibitor concentration near IC50
Description: The catalytic center of TbPTR1 contains a cysteine residue (TbCys168) in close proximity to the substrate/inhibitor binding site. In our previous publication, we mentioned the possibility that Sesquiterpene Lactones 1 and 2 might interact as Michael acceptors with TbCys168 by covalent bond formation with its thiol group. […] In this method, the enzyme activity of the respective enzyme-inhibitor mixture is measured before and after a defined dilution (in this study, 1:2). […]
experimental endpoint: TbPTR1 activity recovered upon 1:2 dilution compared to the reference (%)
Numeric only. Scale: %

These solved cases illustrate the format of a correct answer.
C=C1C(=O)O[C@@H]2/C=C(\CO)CC/C=C(\C)C[C@H](OC(=O)C(=C)[C@H](O)CO)[C@@H]12 [Compound 1, cnicin]	9.5
C=C(CO)C(=O)O[C@H]1CC(=C)[C@@H]2C[C@H](O)C(=C)[C@@H]2[C@H]2OC(=O)C(=C)[C@@H]21 [Compound 2, cynaropicrin]	6.8
O=C(/C=C/CCc1ccc(O)c(O)c1)CCc1ccc(O)c(O)c1 [Compound 17, dehydrohirsutanone]	12.8

// next item, TbPTR1 activity recovered upon 1:2 dilution compared to the reference requested
[ask] # TbPTR1 activity recovered upon 1:2 dilution compared to the reference lookup, item COc1cc(/C=C/C(=O)CC(=O)/C=C/c2ccc(O)c(OC)c2)ccc1O [Compound 5, curcumin]
[reply] 16.6

###

target: LmDHFR (Leishmania major); construct: The DNA fragment encoding LmDHFR was amplified by Phusion DNA polymerase; His6 (N); made in house; host or cells: E. coli BL21(DE3), vector pET 11D::LmDHFRHis; assay: Spectrophotometric enzyme inhibition assay, recombinant LmDHFR; format: biochemical; conditions: read-out: IC50 LmDHFR
Sequence (P07382 26-229 limits assumed): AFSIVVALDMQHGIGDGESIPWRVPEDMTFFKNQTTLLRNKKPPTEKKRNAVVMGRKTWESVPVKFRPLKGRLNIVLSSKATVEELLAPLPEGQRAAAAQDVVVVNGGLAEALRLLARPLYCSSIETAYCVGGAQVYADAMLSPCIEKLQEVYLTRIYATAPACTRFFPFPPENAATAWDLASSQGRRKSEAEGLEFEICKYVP
In this section we review reported IC50 values for a set of compounds.
Numeric only. Scale: µM

[ask] Quick check: IC50 on LmDHFR (Leishmania major), item CCC/C=C\C/C=C\CCCCCCCc1cccc(O)c1C(=O)O ?
[reply] 2.6

[ask] Quick check: IC50 on LmDHFR (Leishmania major), item C=C(C)[C@H](CC=C(C)C)Cc1c(O)cc(O)c2c1O[C@H](c1ccc(O)cc1O)CC2=O ?
[reply] 14

[ask] Quick check: IC50 on LmDHFR (Leishmania major), item CC(C)=CCc1c(O)cc2oc3cc(O)c(O)c(CCC(C)(C)O)c3c(=O)c2c1O ?
[reply] 3

###

molecular target: TbDHFR (Trypanosoma brucei brucei, UniProt Q27783); construct: pET 11D::TbDHFRHis vector design for the recombinant overexpression of TbDHFR in E. coli; His; made in house; host or cells: E. coli BL21(DE3), vector pET 11D::TbDHFRHis; assay: Spectrophotometric enzyme inhibition assay, recombinant TbDHFR; type: biochemical
Sequence (Q27783 28-238 limits assumed): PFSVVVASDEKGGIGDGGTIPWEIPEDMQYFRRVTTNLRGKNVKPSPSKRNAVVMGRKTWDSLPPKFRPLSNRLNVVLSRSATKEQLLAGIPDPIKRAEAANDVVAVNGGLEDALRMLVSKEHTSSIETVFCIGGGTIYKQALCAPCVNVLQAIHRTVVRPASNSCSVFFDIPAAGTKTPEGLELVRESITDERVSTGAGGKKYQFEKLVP
experimental endpoint: IC50 (nM)
Numeric only. Scale: nM

[ask] # IC50 lookup, item O=C(/C=C/c1ccc(O)c(O)c1/C=C/c1ccc(O)c(O)c1)O[C@H](Cc1ccc(O)c(O)c1)C(=O)O
[reply] 2500

[ask] # IC50 lookup, item CC(C)=CCc1c(O)cc2oc3cc(O)c(O)c(CC=C(C)C)c3c(=O)c2c1O
[reply] 200

###

biological target: LmPTR1 (Leishmania major, UniProt Q01782); construct: His6 (N); made in house; host or cells: E. coli BL21 (DE3), vector pET 15b::LmPTR1His (strain from the group of M. Paola Costi, Modena); experiment: Spectrophotometric enzyme inhibition assay, recombinant LmPTR1; assay type: biochemical; conditions: read-out: IC50 LmPTR1
Sequence (Q01782 whole entry): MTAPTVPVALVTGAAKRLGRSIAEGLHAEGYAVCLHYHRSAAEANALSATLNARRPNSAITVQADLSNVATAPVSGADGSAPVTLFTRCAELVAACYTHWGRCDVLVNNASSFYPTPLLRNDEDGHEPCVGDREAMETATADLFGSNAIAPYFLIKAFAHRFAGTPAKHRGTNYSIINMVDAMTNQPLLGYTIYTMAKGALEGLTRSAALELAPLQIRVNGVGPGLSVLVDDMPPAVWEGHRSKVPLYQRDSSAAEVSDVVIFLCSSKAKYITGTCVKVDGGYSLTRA
In this section we review reported IC50 values for a set of compounds.

These solved cases illustrate the format of a correct answer.
CC(C)=CCC/C(C)=C/COc1ccc2oc3cc(O)cc(O)c3c(=O)c2c1	> 50 µM
O=C(/C=C/CCc1ccc(O)c(O)c1)CCc1ccc(O)c(O)c1 [Compound 17, dehydrohirsutanone]	> 50 µM
OC[C@H]1O[C@@H](Oc2c(O)cc(O)cc2/C=C/c2ccc(O)cc2)[C@H](O)[C@@H](O)[C@@H]1O	> 50 µM
COc1cc(C2OC(=O)C3C(c4ccc(O)c(OC)c4)OC(=O)C23)ccc1O (stereo not drawn)	30.2 µM
CCC/C=C\C/C=C\CCCCCCCc1cccc(O)c1C(=O)O	10.2 µM
COc1cc(/C=C/C(=O)CC(=O)/C=C/c2ccc(O)c(OC)c2)ccc1O	> 50 µM
CC(C)=CCc1c(O)ccc(C(=O)CCc2ccc(O)cc2)c1O	> 50 µM
C=C1C(=O)O[C@@H]2/C=C(\CO)CC/C=C(\C)C[C@H](OC(=O)C(=C)[C@H](O)CO)[C@@H]12	> 50 µM

// next item, IC50 requested
[ask] # IC50 lookup, item COc1c(CC=C(C)C)c(O)c([C@H](CC(C)C)c2c(O)c(CC=C(C)C)c(O)c(C(C)=O)c2O)c(O)c1C(C)=O
[reply] > 50 µM

###

target: LmDHFR (Leishmania major); construct: The DNA fragment encoding LmDHFR was amplified by Phusion DNA polymerase; His6 (N); made in house; host or cells: E. coli BL21(DE3), vector pET 11D::LmDHFRHis; test: Spectrophotometric enzyme inhibition assay, recombinant LmDHFR; assay type: biochemical
experimental endpoint: EC50
Note to self: number, then unit, no commentary.

[ask] # EC50 lookup, item O=C(/C=C/c1ccc(O)c(O)c1/C=C/c1ccc(O)c(O)c1)O[C@H](Cc1ccc(O)c(O)c1)C(=O)O
[reply] 18.7 µM

###

Biological target: hDHFR (Homo sapiens, UniProt P00374)
Construct: His; host or cells: E. coli BL21 (DE3), vector pET 15b::hDHFRHis
Sequence (P00374 1-187): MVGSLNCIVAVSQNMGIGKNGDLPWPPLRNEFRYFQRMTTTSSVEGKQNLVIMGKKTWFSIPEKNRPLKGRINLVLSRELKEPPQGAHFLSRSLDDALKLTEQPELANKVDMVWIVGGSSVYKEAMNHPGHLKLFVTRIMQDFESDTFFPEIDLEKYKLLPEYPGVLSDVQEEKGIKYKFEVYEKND
Test: Spectrophotometric enzyme inhibition assay, recombinant hDHFR (selectivity)
Assay type: biochemical
Conditions: set compound concentration of 50 μM; read-out: relative inhibition of hDHFR
In this section we review reported inhibition at 50 µM values for a set of molecules.

These solved cases illustrate the format of a correct answer.
CC(C)=CCc1c(O)cc2oc3cc(O)c(O)c(CCC(C)(C)O)c3c(=O)c2c1O	> 50%
COc1cc(/C=C/C(=O)CC(=O)/C=C/c2ccc(O)c(OC)c2)ccc1O	> 50%
CCC/C=C\C/C=C\CCCCCCCc1cccc(O)c1C(=O)O	> 50%
O=C(/C=C/CCc1ccc(O)c(O)c1)CCc1ccc(O)c(O)c1 [Compound 17, dehydrohirsutanone]	> 50%

[ask] Quick check: inhibition at 50 µM on hDHFR (Homo sapiens, UniProt P00374), item C=C(C)[C@H](CC=C(C)C)Cc1c(O)cc(O)c2c1O[C@H](c1ccc(O)cc1O)CC2=O ?
[reply] > 50%

[ask] Quick check: inhibition at 50 µM on hDHFR (Homo sapiens, UniProt P00374), item COc1c(CC=C(C)C)c(O)c([C@H](CC(C)C)c2c(O)c(CC=C(C)C)c(O)c(C(C)=O)c2O)c(O)c1C(C)=O ?
[reply] > 50%

[ask] Quick check: inhibition at 50 µM on hDHFR (Homo sapiens, UniProt P00374), item CC(C)=CCc1c(O)cc2oc3cc(O)c(O)c(CC=C(C)C)c3c(=O)c2c1O ?
[reply] > 50%

[ask] Quick check: inhibition at 50 µM on hDHFR (Homo sapiens, UniProt P00374), item COc1cc([C@@H]2Oc3cc(-c4oc5cc(O)cc(O)c5c(=O)c4O)ccc3O[C@H]2CO)ccc1O [Compound 4, 2,3-dehydrosilybin B] ?
[reply] > 50%

[ask] Quick check: inhibition at 50 µM on hDHFR (Homo sapiens, UniProt P00374), item O=C(OC1Cc2c(O)cc(O)cc2OC1c1ccc(O)c(O)c1)c1cc(O)c(O)c(O)c1 (single isomer, unassigned; (-)) [Compound 3, (−)-catchin-3-gallate] ?
[reply] > 50%
